testedTarget: Clostridioides difficile toxin A (Clostridioides difficile, strain not …, UniProt P16154)
procedureSummary: SPR
conditionLabel: both partners purified
Each record is given 1 (yes) if its reported koff is strictly below 0.03 s⁻¹. Records at or above 0.03 s⁻¹ are given 0 (no).

# example entries with known answers
* A26.8 VHH with engineered Cys24-Cys86 disulfide linkage (VHH) VHH: QVKLEESGGGLVQAGGSLRLSCCASERTFSRYPVAWFRQAPGAEREFVAVISSTGTSTYYADSVKGRFTISRDNAKVCVYLQMNNLKREDTAVYFCAVNSQRTRLQDPNEYDYWGQGTQVTVSS | 1 (yes)
* A26.8 VHH with engineered Cys6-Cys119 disulfide linkage (VHH) VHH: QVKLECSGGGLVQAGGSLRLSCAASERTFSRYPVAWFRQAPGAEREFVAVISSTGTSTYYADSVKGRFTISRDNAKVTVYLQMNNLKREDTAVYFCAVNSQRTRLQDPNEYDYWCQGTQVTVSS | 0 (no)

[ask] Does the reported koff of the following binder sit strictly below 0.03 s⁻¹? A26.8 VHH with engineered Cys4-Cys25 disulfide linkage (VHH) VHH: QVKCEESGGGLVQAGGSLRLSCACSERTFSRYPVAWFRQAPGAEREFVAVISSTGTSTYYADSVKGRFTISRDNAKVTVYLQMNNLKREDTAVYFCAVNSQRTRLQDPNEYDYWGQGTQVTVSS
[reply] 0 (no)

[ask] Say whether its koff is strictly beneath 0.03 s⁻¹. Entry: A26.8 VHH with engineered Cys22-Cys88 disulfide linkage (VHH) VHH: QVKLEESGGGLVQAGGSLRLCCAASERTFSRYPVAWFRQAPGAEREFVAVISSTGTSTYYADSVKGRFTISRDNAKVTVCLQMNNLKREDTAVYFCAVNSQRTRLQDPNEYDYWGQGTQVTVSS
[reply] 1 (yes)

[ask] Bench note: check whether A26.8 VHH, wild-type (canonical Cys23-Cys104 disulfide linkage only) (VHH) VHH: QVKLEESGGGLVQAGGSLRLSCAASERTFSRYPVAWFRQAPGAEREFVAVISSTGTSTYYADSVKGRFTISRDNAKVTVYLQMNNLKREDTAVYFCAVNSQRTRLQDPNEYDYWGQGTQVTVSS shows koff below 0.03 s⁻¹
[reply] 1 (yes)
